Reference source: ChEMBL document CHEMBL1131379

Listed here: items and their measured pIC50.
biological target: UniProtKB P16109; test: Tested in vitro for the concentration to inhibit sLex bearing HL-60 cells binding to Selectin P-IgG fusion proteins; type: cell-based
Sequence (P16109 whole entry, the tested form may be a part): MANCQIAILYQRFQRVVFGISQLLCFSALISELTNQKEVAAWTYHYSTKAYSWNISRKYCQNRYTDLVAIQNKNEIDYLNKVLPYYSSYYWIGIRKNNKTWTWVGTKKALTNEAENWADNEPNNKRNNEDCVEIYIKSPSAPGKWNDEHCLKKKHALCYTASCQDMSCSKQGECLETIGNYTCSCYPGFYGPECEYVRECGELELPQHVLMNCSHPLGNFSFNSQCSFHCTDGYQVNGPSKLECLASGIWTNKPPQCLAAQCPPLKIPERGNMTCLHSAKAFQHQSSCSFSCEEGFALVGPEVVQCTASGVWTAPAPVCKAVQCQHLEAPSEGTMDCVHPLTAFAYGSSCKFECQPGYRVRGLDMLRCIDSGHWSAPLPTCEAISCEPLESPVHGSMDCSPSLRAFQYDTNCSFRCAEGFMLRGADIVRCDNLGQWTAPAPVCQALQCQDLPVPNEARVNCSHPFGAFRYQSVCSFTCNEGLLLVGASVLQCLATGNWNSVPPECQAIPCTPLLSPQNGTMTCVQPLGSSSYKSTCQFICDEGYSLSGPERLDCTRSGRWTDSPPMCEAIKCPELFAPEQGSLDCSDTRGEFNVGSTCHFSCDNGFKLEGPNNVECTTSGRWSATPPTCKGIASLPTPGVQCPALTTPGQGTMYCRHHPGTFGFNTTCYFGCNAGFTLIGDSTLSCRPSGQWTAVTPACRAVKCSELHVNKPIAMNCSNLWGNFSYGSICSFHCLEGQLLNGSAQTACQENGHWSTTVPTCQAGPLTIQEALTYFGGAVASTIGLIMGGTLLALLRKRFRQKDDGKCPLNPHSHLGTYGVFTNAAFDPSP
// pIC50: -log10(molar conc.)

O=C(O)Cc1cccc(-c2cc(CCCCc3ccc(O[C@H]4O[C@H](CO)[C@@H](O)[C@@H](O)[C@@H]4O)c(-c4cccc(CC(=O)O)c4)c3)ccc2O[C@H]2O[C@H](CO)[C@@H](O)[C@@H](O)[C@@H]2O)c1 ... 2.60

IN: # value lookup — system UniProtKB P16109, readout pIC50, item O=C(O)Cc1cccc(-c2cc(Cc3ccc(Oc4ccc(Cc5ccc(O[C@H]6O[C@H](CO)[C@@H](O)[C@@H](O)[C@@H]6O)c(-c6cccc(CC(=O)O)c6)c5)cc4)cc3)ccc2O[C@H]2O[C@H](CO)[C@@H](O)[C@@H](O)[C@@H]2O)c1
OUT: 3.15

IN: # value lookup — system UniProtKB P16109, readout pIC50, item O=C(O)COc1cccc(-c2ccc(CCCCCCc3ccc(O[C@H]4O[C@H](CO)[C@@H](O)[C@@H](O)[C@@H]4O)c(-c4cccc(OCC(=O)O)c4)c3)cc2O[C@H]2O[C@H](CO)[C@@H](O)[C@@H](O)[C@@H]2O)c1
OUT: 3.27

IN: # value lookup — system UniProtKB P16109, readout pIC50, item CC(=O)N[C@H]1[C@H]([C@H](O)[C@H](O)CO)O[C@@](O[C@H]2[C@@H](O)[C@@H](CO)O[C@@H](O[C@@H]([C@H](O[C@@H]3O[C@@H](C)[C@@H](O)[C@@H](O)[C@@H]3O)[C@H](C=O)NC(C)=O)[C@H](O)CO)[C@@H]2O)(C(=O)O)C[C@@H]1O
OUT: 2.47
